# credit: ChEMBL document CHEMBL5214903

- MEASUREMENT_PROTOCOL: Inhibition of Aurora (unknown origin)
- Set-up: species or system Homo sapiens
pIC50: −log10 of the molar value.

# COMPOUND, pIC50
measured = [
    ("CC(C)(C)OC(=O)C1CC2CSCN2C12C(=O)Nc1cc(-c3ccc4c(c3)CC(=O)N4)ccc12 (stereo unspecified)", 4.35),
]

* * *

- TESTED_TARGET: Bromodomain-containing protein 3 (Homo sapiens, UniProt Q15059)
- Sequence (Q15059 whole entry, the tested form may be a part): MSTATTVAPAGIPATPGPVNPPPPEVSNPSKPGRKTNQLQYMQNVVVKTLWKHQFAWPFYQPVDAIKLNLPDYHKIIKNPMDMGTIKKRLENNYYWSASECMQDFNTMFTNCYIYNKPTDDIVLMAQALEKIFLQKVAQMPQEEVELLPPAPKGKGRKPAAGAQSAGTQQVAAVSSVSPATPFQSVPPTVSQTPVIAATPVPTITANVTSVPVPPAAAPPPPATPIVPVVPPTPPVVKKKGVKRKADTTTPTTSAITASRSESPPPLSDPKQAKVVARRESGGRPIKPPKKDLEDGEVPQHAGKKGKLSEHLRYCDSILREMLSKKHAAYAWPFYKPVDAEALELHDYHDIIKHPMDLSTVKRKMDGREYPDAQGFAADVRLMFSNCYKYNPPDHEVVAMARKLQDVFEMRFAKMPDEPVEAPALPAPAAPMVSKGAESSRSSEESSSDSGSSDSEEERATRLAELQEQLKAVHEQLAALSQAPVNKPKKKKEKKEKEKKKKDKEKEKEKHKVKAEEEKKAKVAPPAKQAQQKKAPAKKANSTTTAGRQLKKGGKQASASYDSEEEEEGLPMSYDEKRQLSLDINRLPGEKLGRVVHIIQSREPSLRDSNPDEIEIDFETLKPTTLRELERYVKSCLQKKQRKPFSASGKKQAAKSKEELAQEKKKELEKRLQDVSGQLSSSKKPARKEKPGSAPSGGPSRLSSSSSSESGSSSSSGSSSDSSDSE
- MEASUREMENT_PROTOCOL: Binding affinity to recombinant human BRD3 bromodomain-1 (44 to 168 residues) expressed in Escherichia coli BL21 (DE3) cells assessed as inhibition constant by fluorescence polarization assay

# COMPOUND, Ki / nM
rows = [
    ("COc1cc(/C=C/C(=O)Nc2ccc3c(c2)C2(C(=O)N3)C(C(=O)OC(C)(C)C)CC3CSCN32)cc(OC)c1OC (stereo unspecified)", 131),
]
